Where these numbers come from: patent US9522945B2

Please provide measured Vd for the entries that follow.
Design: species or system rats
cond: rat, in vivo, sc, 230 ug/kg;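 also: blood drawn at alternating time points, with three animals in each cohort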
Numbers only, in L/kg.

molecule	assay result
CTP-OXM-CTP: oxyntomodulin with one CTP on the amino terminus and one on the carboxy terminus, SEQ ID NO: 9 (protein, CTP-OXM-CTP) MATGSRTSLLLAFGLLCLPWLQEGSASSSSKAPPPSLPSPSRLPGPSDTPILPQHSQGTFTSDYSKYLDSRRAQDFVQWLMNTKRNRNNIASSSSKAPPPSLPSPSRLPGPSDTPILPQ	5.88775
CTP-CTP-OXM: oxyntomodulin with two CTPs on the amino terminus, SEQ ID NO: 23 (protein, CTPx2-OXM) MATGSRTSLLLAFGLLCLPWLQEGSASSSSKAPPPSLPSPSRLPGPSDTPILPQSSSSKAPPPSLPSPSRLPGPSDTPILPQHSQGTFTSDYSKYLDSRRAQDFVQWLMNTKRNRNNIARSGCGRGTLGLMGLPFTARFP	6.45976
CTP-OXM-CTP-CTP: oxyntomodulin with one CTP on the amino terminus and two on the carboxy terminus, SEQ ID NO: 15 (protein, CTP-OXM-CTP-CTP) MATGSRTSLLLAFGLLCLPWLQEGSASSSSKAPPPSLPSPSRLPGPSDTPILPQHSQGTFTSDYSKYLDSRRAQDFVQWLMNTKRNRNNIASSSSKAPPPSLPSPSRLPGPSDTPILPQSSSSKAPPPSLPSPSRLPGPSDTPILPQ	4.13925

Turning now to a further record.
Provide one value: measured Vd of OXM-CTP-CTP: oxyntomodulin with two CTPs in tandem on the carboxy terminus, SEQ ID NO: 21, expressed in CHO cells (protein, OXM-CTP-CTP) LEDMATGSRTSLLLAFGLLCLPWLQEGSAHSQGTFTSDYSKYLDSRRAQDFVQWLMNTKRNRNNIASSSSKAPPPSLPSPSRLPGPSDTPILPQSSSSKAPPPSLPSPSRLPGPSDTPILPQ
2.0789
